This collection of values is drawn from patent US20160362487A1.

mAb-2 Binding to the Pre-complex of mAb-1 & MfIL-33-6xHis overview
- Measured on: T1, cynomolgus monkey IL-33 expressed with a C-terminal hexahistidine tag (cynomolgus monkey)
- T1 construct: also called MfIL-33-6His; Mf-IL-33-6His
- T1 chain: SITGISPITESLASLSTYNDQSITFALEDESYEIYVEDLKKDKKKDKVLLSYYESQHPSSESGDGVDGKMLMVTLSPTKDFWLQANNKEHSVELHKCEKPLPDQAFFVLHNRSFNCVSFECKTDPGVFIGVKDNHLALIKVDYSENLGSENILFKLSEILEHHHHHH
- Assay explanation: BLI; captured MfIL-33-6His, mAb-1 step with Buffer
Numeric answer only, unit nm assumed.

INSERT INTO measurements (binder, unit_of_measure, test_result) VALUES
  ('H4H9662P (antibody, V domains shown, Human IgG4 Fc (H4H)) VH: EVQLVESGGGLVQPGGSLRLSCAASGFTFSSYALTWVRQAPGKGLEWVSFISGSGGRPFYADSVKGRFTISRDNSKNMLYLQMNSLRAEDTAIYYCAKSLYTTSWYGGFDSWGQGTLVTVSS VL: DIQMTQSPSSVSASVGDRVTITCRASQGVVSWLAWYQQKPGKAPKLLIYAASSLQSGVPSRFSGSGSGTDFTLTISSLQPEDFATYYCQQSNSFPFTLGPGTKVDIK', 'nm', 0.26);

Prompt: Recorded mAb-2 Binding to the Pre-complex of mAb-1 & MfIL-33-6xHis of H4H9660P (antibody, human IgG4, V domains shown, Human IgG4 Fc (H4H)) VH: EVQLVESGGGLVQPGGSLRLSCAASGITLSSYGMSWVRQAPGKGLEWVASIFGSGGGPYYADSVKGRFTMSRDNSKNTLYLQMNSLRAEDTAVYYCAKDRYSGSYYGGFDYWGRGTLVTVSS VL: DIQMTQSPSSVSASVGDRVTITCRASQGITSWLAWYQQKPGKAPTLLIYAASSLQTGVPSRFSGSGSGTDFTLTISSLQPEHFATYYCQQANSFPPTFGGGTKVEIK , please.
Response: 0.3

Prompt: Recorded mAb-2 Binding to the Pre-complex of mAb-1 & MfIL-33-6xHis of H1M9566N (antibody, mouse IgG1, V domains shown, Human variable domains, mouse IgG1 Fc (H1M)) VH: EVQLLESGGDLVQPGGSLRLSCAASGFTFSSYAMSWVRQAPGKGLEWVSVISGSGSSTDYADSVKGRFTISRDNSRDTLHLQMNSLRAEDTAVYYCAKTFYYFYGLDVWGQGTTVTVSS VL: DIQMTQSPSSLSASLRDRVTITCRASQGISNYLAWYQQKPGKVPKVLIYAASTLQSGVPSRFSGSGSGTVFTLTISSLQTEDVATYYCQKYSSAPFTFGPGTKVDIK , please.
Response: 0.39
